Provenance of the data: ChEMBL document CHEMBL1201862

- System: SR
- EXPERIMENT_SUMMARY: NCI tumour cell line growth inhibition, 48 h
The source made the active and inactive calls. No stated cut-off is given here; in the data, active = GI50 up to about 1.1 µM and inactive = higher.
Classes used: active, inactive

O=C(CC(=O)Nc1ccc(C(=O)O)cc1)Nc1ccc(C(=O)O)cc1 :: inactive
O=c1oc2ccccc2cc1-c1cn2cc(Cl)ccc2n1 :: active
CCCCCCCCCCCCCCCC(=O)N(CCCCCCCCCCC(=O)O)CC(O)C(O)C(OC1OC(CO)C(O)C(O)C1O)C(O)CO (stereo not given) :: inactive
N#CC(O)CCOCc1ccccc1 (stereo not given) :: inactive
Clc1ccc(C2=C(c3ccccc3)C(c3ccc(Cl)cc3)N3C(=N[C@H]4CCCC[C@@H]43)N2)cc1 (stereo not given in full) :: inactive

====

compounds and their reported GI50
- System: OVCAR-5
- EXPERIMENT_SUMMARY: NCI tumour cell line growth inhibition, 48 h
Calls of active or inactive are those of the source. Cut-off read from the data, not from the text of the source: active = GI50 up to about 1.1 µM and inactive = higher.
VALUE_TYPE: GI50

CC12CCC(O)CC1CCC1C2CCC2(C)C(C(=O)CC(O)C(F)(F)F)CCC12 (stereo not given) :: 26.4 µM (inactive)
CN(CCN(C)CCN(C)C(=O)Cc1ccc(Cl)c(Cl)c1)CCN1CCCC1 :: 37.5 µM (inactive)
CC(=O)NCCCCN(CCCNC(C)=O)C(=O)OCc1ccccc1 :: > 100 µM (inactive)
O=C(O/N=C1/CCC/C1=C\c1ccccc1)c1ccccc1 :: > 100 µM (inactive)
COc1ccc(C(=O)O)c(Cc2cccc3ccccc23)c1 :: > 100 µM (inactive)
CCCSc1nc(COC(=O)NC)c(COC(=O)NC)n1C :: > 100 µM (inactive)
COc1ccc(NC(=O)C(=O)NO)c(OC)c1 :: 19.5 µM (inactive)
Cc1ccc(OCC(=O)N2N=C(c3ccccc3)CC2(O)c2ccccc2)cc1 (stereo not given) :: 18.1 µM (inactive)
COc1c(C(=O)CC2c3c(cc4oc(C)cc(=O)c4c3OC)OC(=N)C2c2nc3ccccc3[nH]2)c(O)c(OC)c2occc12 (stereo not given) :: > 100 µM (inactive)
Cc1ccc(-c2nnc3s/c(=C\c4ccc(N(C)C)cc4)c(=O)n23)cc1 :: > 100 µM (inactive)

====

- Tested on: UACC-62
- EXPERIMENT_SUMMARY: NCI tumour cell line growth inhibition, 48 h
Activity calls are given as the source filed them. No stated cut-off is given here; in the data, active = GI50 up to about 1.1 µM and inactive = higher. *1 amine or outer side, *2 acyl side, *3 side chain or, on linkers, in order; H or OH if unused. Where a SMILES comes first, the peptide text is derived from it. Bridges are numbered along the chain shown (N, C = ends). Roman numbers before positions name the chains, in order. [ ]: non-standard residue; d: D form. Actinocin(1to9) = Cc1c2oc3c(C)ccc(C(=O)[*:2])c3nc-2c(C(=O)[*:1])c(N)c1=O; NMeV = CN[CH](C(=O)O)C(C)C; Sar = CNCC(=O)O
Classes used: active, inactive

CCOC(=O)NC(=O)c1cn(CCCOC(=O)CCCCCCCCC(=O)OCCCn2cc(C(=O)NC(=O)OCC)c(=O)[nH]c2=O)c(=O)[nH]c1=O :: inactive
c1cc2n(n1)CCN2 :: inactive
COc1ccc(CC2NC(=O)C(NC(=O)c3c4nc5c(C(=O)NC6C(=O)NC(Cc7ccc(OC)cc7)C(=O)N7CCCC7C(=O)N(C)CC(=O)N(C)C(C(C)C)C(=O)OC6C)ccc(C)c5oc-4c(C)c(=O)c3N)C(C)OC(=O)C(C(C)C)N(C)C(=O)CN(C)C(=O)C3CCCN3C2=O)cc1 (stereo unspecified) (I: TY(Me)P[Sar][NMeV] / II: TY(Me)P[Sar][NMeV]; ester I:1-I:C, II:1-II:C; linker I:N-II:N via Actinocin(1to9); configuration not given here) :: active
O=S1(=O)CCN(c2ccccc2CC(c2c[nH]c3ccccc23)c2c[nH]c3ccccc23)CC1 :: inactive
COc1cccc(-c2[nH]c3cc4c(cc3c(=O)c2C(=O)O)OCO4)c1 :: inactive
O=C1/C(=C/c2ccco2)NC(=S)N1CN1CCOCC1 :: inactive
Clc1ccc(C2=CCN3CC=C(c4ccc(Cl)cc4)C23)cc1 :: inactive
CCOC(=O)/C(C(N)=O)=C(O)/C(O)=C/C(=O)c1ccc(Cl)cc1 :: inactive
COC1=C(Br)[C@H](O)[C@@]2(C=C1Br)CC(C(=O)NCCCOc1c(Br)cc(C(O)CNC(C)=O)cc1Br)=NO2 (stereo partly specified) :: inactive
N#Cc1ccccc1NC(=O)C(=O)C(C(=O)c1ccccc1-c1ccccc1)C1OC(=O)c2ccccc21 (stereo unspecified) :: inactive
C=C(Cl)C(=C)CCC(Cl)C(C)C (stereo unspecified) :: inactive
COC(=O)c1ncc2c(=O)[nH]c3ccccc3c2c1C(=O)OC :: inactive
Cc1cc(NS(=O)(=O)c2ccc(Nc3c4ccccc4nc4c(C(=O)NCCO)cccc34)cc2)no1 :: inactive
Cc1ccc(NC(=O)/C(=N\Nc2ccc([N+](=O)[O-])cc2[N+](=O)[O-])C2C(=O)NC(=O)NC2=O)cc1 :: inactive
O=C(O)C(Br)C(Br)C(=O)O (stereo unspecified) :: inactive
CCOC(=O)c1c2ccc(/C=C/c3ccccn3)ccc-2c(C(=O)OCC)c1N :: inactive
